- target under test: bacterial NAD synthetase enzyme (Bacillus subtilis, UniProt P08164)
- Sequence (P08164 2-272 limits assumed): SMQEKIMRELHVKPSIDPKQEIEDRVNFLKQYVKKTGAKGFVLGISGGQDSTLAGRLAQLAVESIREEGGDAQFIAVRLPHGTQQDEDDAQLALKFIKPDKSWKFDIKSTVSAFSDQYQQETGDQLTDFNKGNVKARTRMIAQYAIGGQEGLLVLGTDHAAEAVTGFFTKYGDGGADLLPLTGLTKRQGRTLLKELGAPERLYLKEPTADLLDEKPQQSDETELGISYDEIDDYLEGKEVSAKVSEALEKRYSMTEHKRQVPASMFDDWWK
- protocol notes: biochemical
- Format: biochemical
- run parameters: compound at 0.2 mM (Table 312A)
value type: % Inhibition
Reply with a number, then the unit it belongs to.

C[n+]1cccc(C(=O)OCCCCCCCCn2ccc3ccccc32)c1	83.16%
COC(=O)c1ccc2[nH]c(CCCCCCCC[n+]3cccc4ccccc43)cc2c1	8.24%
O=C(c1ccccc1)c1ccc2[nH]c(CCCCCC[n+]3cccc4ccccc43)cc2c1	7.92%
CN(C)c1cccc(C(=O)OCCCCCCCCc2cc3cc(Oc4ccccc4)ccc3[nH]2)c1	2.02%
FC(F)(F)c1ccc2cc(CCCCCC[n+]3ccc4ccccc4c3)[nH]c2c1	26.18%

Specify measured % Inhibition for O=C(c1ccccc1)c1ccc2[nH]c(CCCCCCC[n+]3ccccc3)cc2c1 . 23.19%

Provide measured % Inhibition value, entry: c1ccc(-c2ccc3[nH]c(CCCCCCCC[n+]4cccc5ccccc54)cc3c2)cc1 6.91%

Tell me its % Inhibition given C[N+](C)(C)c1ccc(CC(=O)OCCCCCCn2ccc3ccccc32)cc1 as the entry. 38.72%

Identify % Inhibition associated with the compound c1ccc(-c2ccc3[nH]c(CCCCCC[n+]4ccc5ccccc5c4)cc3c2)cc1 28.06%

Report % Inhibition, nothing else, for this compound: Fc1ccc2[nH]c(CCC[n+]3ccc4ccccc4c3)cc2c1 1.27%

Determine its reported % Inhibition: O=C(O)c1ccc2[nH]c(CCCCCCC[n+]3cccc4ccccc43)cc2c1 36.97%

Supply measured % Inhibition of O=C(O)c1ccc2[nH]c(CCCC[n+]3ccccc3)cc2c1 in your reply. 61.62%

Assign % Inhibition to the following record: CC(C)c1ccc2[nH]c(CCCCCC[n+]3cccc4ccccc43)cc2c1 13.01%

Consider the compound c1ccc(Oc2ccc3[nH]c(CCCC[n+]4cccc5ccccc54)cc3c2)cc1 . State its measured % Inhibition. 3.31%

Provide % Inhibition value for the following compound: Cc1ccc2[nH]c(CCCC[n+]3ccc4ccccc4c3)cc2c1 11.02%

Hello, please tell me recorded % Inhibition for this one: O=C(c1ccccc1)c1ccc2[nH]c(CCC[n+]3cccc4ccccc43)cc2c1 3.84%

Hello, please tell me recorded % Inhibition for this one: C[n+]1cccc(C(=O)OCCCCCCCn2ccc3ccccc32)c1 88.52%

Output % Inhibition of C[N+](C)(C)c1ccc(CC(=O)OCCCCCCCn2ccc3ccccc32)cc1 74.86%

###

- Tested on: Staphylococcus epidermitis
- protocol notes: Bacterial growth inhibition screen in LB media (absorbance 595 nm), percent inhibition
- run parameters: S. epidermitis; concentration screened 10 uM
value type: % Inhibition
Field note: include the unit after the figure.

Previously resolved entries follow.
c1ccc(Oc2ccc3[nH]c(CCCCC[n+]4cccc5ccccc54)cc3c2)cc1	22.77%
c1ccc2c[n+](CCCCCCCCc3cc4ccccc4[nH]3)ccc2c1	7.82%
O=[N+]([O-])c1ccc2[nH]c(CCCC[n+]3cccc4ccccc43)cc2c1	30.57%

Indicate the recorded % Inhibition value for this molecule: O=C(CCc1cccnc1)OCCCCCCCCc1cc2cc([N+](=O)[O-])ccc2[nH]1 13.28%

###

- Tested on: Staphylococcus epidermitis
- protocol notes: Bacterial growth inhibition screen in LB media (absorbance 595 nm), percent inhibition
- run parameters: S. epidermitis; concentration screened 10 uM
value type: % Inhibition (%)
Hi! Could you send only the number? It should be in %, unit omitted.

Here are 5 compounds together with their reported answers.
Fc1ccc2[nH]c(CCCCCCCC[n+]3cccc4ccccc43)cc2c1 [Compound 455]	6.55
FC(F)(F)c1ccc2[nH]c(CCCC[n+]3ccccc3)cc2c1 [Compound 361]	5.57
O=[N+]([O-])c1ccc2[nH]c(CCCCCCCC[n+]3cccc4ccccc43)cc2c1 [Compound 443]	7.66
O=C(OCCCCCCCc1cc2cc(C(F)(F)F)ccc2[nH]1)c1cccnc1 [Compound 655]	11.51
COc1ccc2c(ccn2CCCCCCCOC(=O)c2cc3ccccc3[n+](C)c2)c1 [Compound 823]	97.03

Look up and report measured % Inhibition for this entry: FC(F)(F)c1ccc2[nH]c(CCCCCC[n+]3ccc4ccccc4c3)cc2c1 [Compound 579] 5.57

Complete the entry with % Inhibition for Fc1ccc2[nH]c(CCC[n+]3cccc4ccccc43)cc2c1 [Compound 450] 7.45

Given Cc1ccc2[nH]c(CCCCCC[n+]3cccc4ccccc43)cc2c1 [Compound 405] , respond with its % Inhibition. 44.01

Please report % Inhibition for the following compound: CN(C)c1cccc(C(=O)OCCCCCCCn2ccc3cc([N+](=O)[O-])ccc32)c1 [Compound 839] 99.35

###

- Test system: Staphylococcus epidermitis
- protocol notes: Bacterial growth inhibition screen in LB media (absorbance 595 nm), percent inhibition
- run parameters: S. epidermitis; concentration screened 10 uM
value type: % Inhibition
Please make sure the unit comes right after the number.

Given the molecule C[n+]1cccc(C(=O)OCCCCn2ccc3cc([N+](=O)[O-])ccc32)c1 , write its reported % Inhibition. 4.72%

Given O=C(OCCCCCCCCc1cc2cc(C(=O)c3ccccc3)ccc2[nH]1)c1ccncc1 , respond with its % Inhibition. 6.95%

Check the records and state % Inhibition for c1ccc(C(c2ccccc2)(c2ccccc2)c2ccc3[nH]c(CCCC[n+]4cccc5ccccc54)cc3c2)cc1 11.21%

Provide only the value of recorded % Inhibition for CC(=O)c1ccc2[nH]c(CCCCCCCOC(=O)c3cccc(N(C)C)c3)cc2c1 10.08%

Quote % Inhibition reported for CN(C)c1ccc(CC(=O)OCCCCCCn2ccc3cc([N+](=O)[O-])ccc32)cc1 please. 56.50%

###

- target under test: bacterial NAD synthetase enzyme (Bacillus subtilis)
- Sequence (P08164 2-272 limits assumed): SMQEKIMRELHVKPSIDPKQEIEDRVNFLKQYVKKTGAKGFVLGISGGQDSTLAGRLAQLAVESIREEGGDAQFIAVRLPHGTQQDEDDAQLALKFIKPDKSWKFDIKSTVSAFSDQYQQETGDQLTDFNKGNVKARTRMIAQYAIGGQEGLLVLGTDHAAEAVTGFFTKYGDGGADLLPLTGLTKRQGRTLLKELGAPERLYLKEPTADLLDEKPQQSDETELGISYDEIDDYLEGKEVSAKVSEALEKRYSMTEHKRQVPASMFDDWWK
- protocol notes: biochemical
- Type: biochemical
- run parameters: compound at 0.2 mM (Table 312A)
Please note: % Inhibition exactly at 20% is false (0). Only values below 20% get true (1).

O=C(O)c1ccc2[nH]c(CCC[n+]3ccccc3)cc2c1 [Compound 384]	true (1)
Fc1ccc2[nH]c(CCCCC[n+]3ccc4ccccc4c3)cc2c1 [Compound 560]	false (0)
c1ccc2[nH]c(CCCCC[n+]3cccc4ccccc43)cc2c1 [Compound 392]	true (1)
COc1ccc2c(ccn2CCCCCCCCOC(=O)Cc2ccc([N+](C)(C)C)cc2)c1 [Compound 744]	false (0)
COc1ccc2[nH]c(CCC[n+]3ccc4ccccc4c3)cc2c1 [Compound 588]	true (1)

Consider the compound FC(F)(F)c1ccc2[nH]c(CCC[n+]3ccc4ccccc4c3)cc2c1 [Compound 576] . Is its % Inhibition strictly less than 20%? true (1)

Strictly below 20% in % Inhibition? Fc1ccc2[nH]c(CCCCCCC[n+]3cccc4ccccc43)cc2c1 [Compound 454] true (1)

Problem: For the compound Fc1cc(F)c2[nH]c(CCCCCCC[n+]3ccc4ccccc4c3)cc2c1 [Compound 520] , is % Inhibition under 20%? false (0)

Below 20% on % Inhibition? Entry O=C(c1ccccc1)c1ccc2[nH]c(CCCCOC(=O)c3ccccc3-c3ccccc3)cc2c1 [Compound 648] true (1)

Item c1ccc(-c2ccc3[nH]c(CCCCCC[n+]4cccc5ccccc54)cc3c2)cc1 [Compound 435] : % Inhibition beneath 20%, strictly? true (1)

Consider COc1ccc2c(ccn2CCCCCOC(=O)c2ccc[n+](C)c2)c1 [Compound 761] . Does its % Inhibition lie strictly below 20%? true (1)

Say whether its % Inhibition is strictly beneath 20%. Entry: FC(F)(F)c1ccc2[nH]c(CCCCC[n+]3ccc4ccccc4c3)cc2c1 [Compound 578] false (0)

Quick check: does O=[N+]([O-])c1cc([N+](=O)[O-])c2[nH]c(CCCCC[n+]3ccccc3)cc2c1 [Compound 308] have % Inhibition under 20%? false (0)

Identify whether the compound O=[N+]([O-])c1cc([N+](=O)[O-])c2[nH]c(CCCC[n+]3cccc4ccccc43)cc2c1 [Compound 415] records % Inhibition below 20%. true (1)
